Provenance of the data: ChEMBL document CHEMBL1143096

assay: Inhibition of tubulin assembly at 130 uM
// reported inhibition per item
Your answer should be a plain number; it is taken to be in %.

Need inhibition, item "COc1cc(C(=O)C(=O)c2ccccc2)cc(OC)c1OC"
79

Need inhibition, item "COc1ccc(C(=O)C(=O)c2cc(OC)c(OC)c(OC)c2)cc1F"
73

Need inhibition, item "COc1ccc(C(=O)C(=O)c2cc(OC)c(OC)c(OC)c2)cc1O"
73

Need inhibition, item "COc1cc(C(=O)C(=O)c2cccc(O)c2)cc(OC)c1OC"
69

====

// reported IC50 per item
system: HCT-116; test: Cytotoxicity against human HCT116 cells; format: functional, cell-based
Your answer should be a plain number; it is taken to be in µM.

INSERT INTO results (molecule, obs_value) VALUES
  ('COc1ccc(C(=O)C(=O)c2cc(OC)c(OC)c(OC)c2)cc1OC(C)=O', 0.04);

Need IC50, item "COc1ccc(C(=O)C(=O)c2cc(OC)c(OC)c(OC)c2)cc1O"
0.035

Need IC50, item "COc1ccc(C(=O)C(=O)c2cc(OC)c(OC)c(OC)c2)cc1F"
0.7

Need IC50, item "COc1ccc(C(=O)C(=O)c2cc(OC)c(OC)c(OC)c2)cc1"
0.3

Need IC50, item "COc1cc(C(=O)C(=O)c2cccc(O)c2)cc(OC)c1OC"
2

Need IC50, item COc1ccc(/C=C\c2cc(OC)c(OC)c(OC)c2)cc1O [COMBRETASTATIN A4]
0.0018

Need IC50, item "COc1ccc(C(=O)C(=O)c2cc(OC)c(OC)c(OC)c2)cc1N"
0.038

Need IC50, item "COc1cc(C(=O)C(=O)c2ccccc2)cc(OC)c1OC"
3

Need IC50, item "COc1cc(C(=O)C(=O)c2ccc3ccccc3c2)cc(OC)c1OC"
3

Need IC50, item "COc1ccc(C(=O)C(=O)c2cc(OC)c(OC)c(OC)c2)cc1OC"
0.3

Need IC50, item "COc1ccc(C(=O)C(=O)c2cc(OC)c(OC)c(OC)c2)cc1NC(C)=O"
0.35

====

// reported pIC50 per item
test system: HUVEC; assay: Cytotoxicity against HUVEC; type: cell-based; details: Homo sapiens
Scale for pIC50: -log10 of concentration given in mol/L; no unit attached.

Need pIC50, item "COc1ccc(C(=O)C(=O)c2cc(OC)c(OC)c(OC)c2)cc1N"
7.40

Need pIC50, item "COc1ccc(/C=C\c2cc(OC)c(OC)c(OC)c2)cc1O"
8.60

Need pIC50, item "COc1ccc(C(=O)C(=O)c2cc(OC)c(OC)c(OC)c2)cc1O"
7.46

====

// reported IC50 per item
test: Cytotoxicity against human H1299 cells; assay type: functional, cell-based; conditions: NCI-H1299
Your answer should be a plain number; it is taken to be in nM.

INSERT INTO measurements (compound, obs_value) VALUES
  ('COc1ccc(C(=O)C(=O)c2cc(OC)c(OC)c(OC)c2)cc1N', 50),
  ('COc1ccc(/C=C\c2cc(OC)c(OC)c(OC)c2)cc1O [COMBRETASTATIN A4]', 5),
  ('COc1ccc(C(=O)C(=O)c2cc(OC)c(OC)c(OC)c2)cc1O', 30);

// next entry
Need IC50, item "COc1ccc(C(=O)C(=O)c2cc(OC)c(OC)c(OC)c2)cc1OC(C)=O"
30
